Origin of measurements: ChEMBL document CHEMBL5236589

PROTOCOL DESCRIPTION: MRT in ICR mouse at 10 mg/kg, po by LC-MS/MS analysis
Assay type: ADME, organism-based
TEST CONDITIONS: in vivo
REPORTED METRIC: MRT

# example entries with known answers
{"INPUT SMILES": "CC(=O)N1CCN2c3cc4c(N[C@H](C)c5cc(N)cc(C(F)(F)F)c5)nc(C)nc4cc3OC[C@H]2C1", "ENDPOINT RESULT": "10.1 h"}
{"INPUT SMILES": "COc1cc2nc(C)nc(N[C@H](C)c3cc(N)cc(C(F)(F)F)c3)c2cc1O[C@H]1CCOC1", "ENDPOINT RESULT": "1.7 h"}
{"INPUT SMILES": "CC(=O)N1CCN2c3cc4c(N[C@H](C)c5cccc(C(F)F)c5F)nc(C)nc4cc3OC[C@H]2C1", "ENDPOINT RESULT": "1.9 h"}

Next, consider the following molecule.
QUERY: Could you share which MRT value was measured for CC(=O)N1CCN2c3cc4c(N[C@H](C)c5cccc(C(F)(F)C(C)(C)O)c5F)nc(C)nc4cc3OC[C@H]2C1 ?
RESULT: 1 h

* * *

PROTOCOL DESCRIPTION: AUC in ICR mouse at 10 mg/kg, po by LC-MS/MS analysis
Format: ADME, organism-based
Design: dose 10 mg/kg, route po
TEST CONDITIONS: in vivo
Known AUC of a selection of molecules
API: value field is a number in ng·h/mL; no unit string.

# example entries with known answers
{"INPUT SMILES": "CC(=O)N1CCN2c3cc4c(N[C@H](C)c5cc(N)cc(C(F)(F)F)c5)nc(C)nc4cc3OC[C@H]2C1", "ENDPOINT RESULT": 53.5}
{"INPUT SMILES": "COc1cc2nc(C)nc(N[C@H](C)c3cc(N)cc(C(F)(F)F)c3)c2cc1O[C@H]1CCOC1", "ENDPOINT RESULT": 550}

QUERY: Could you share which AUC value was measured for CC(=O)N1CCN2c3cc4c(N[C@H](C)c5cccc(C(F)(F)C(C)(C)O)c5F)nc(C)nc4cc3OC[C@H]2C1 ?
RESULT: 7.7

QUERY: Also, CC(=O)N1CCN2c3cc4c(N[C@H](C)c5cccc(C(F)F)c5F)nc(C)nc4cc3OC[C@H]2C1 please.
RESULT: 148

* * *

Known k el of a selection of compounds
PROTOCOL DESCRIPTION: Elimination rate constant in ICR mouse at 20 mg/kg, po by LC-MS/MS analysis
Format: ADME, organism-based
TEST CONDITIONS: ICR, in vivo
API: value field is a number in s⁻¹; no unit string.

{"INPUT SMILES": "Cc1nc(N[C@H](C)c2cccc(C(F)F)c2F)c2cc3c(cc2n1)OC[C@H]1CN(C(=O)C2(C#N)CC2)CCN31", "REPORTED METRIC": "k el", "UNIT TEXT": "s⁻¹", "ENDPOINT RESULT": "5e-05"}
{"INPUT SMILES": "Cc1nc(N[C@H](C)c2cccc(C(F)F)c2F)c2cc3c(cc2n1)OC[C@H]1CN(C(=O)C2COC2)CCN31", "REPORTED METRIC": "k el", "UNIT TEXT": "s⁻¹", "ENDPOINT RESULT": "5e-05"}
{"INPUT SMILES": "COc1cc2nc(C)nc(N[C@H](C)c3cc(N)cc(C(F)(F)F)c3)c2cc1O[C@H]1CCOC1", "REPORTED METRIC": "k el", "UNIT TEXT": "s⁻¹", "ENDPOINT RESULT": "5.83e-05"}
{"INPUT SMILES": "Cc1nc(N[C@H](C)c2cccc(C(F)F)c2F)c2cc3c(cc2n1)OC[C@H]1CN(C(=O)[C@@H]2C[C@H]2F)CCN31", "REPORTED METRIC": "k el", "UNIT TEXT": "s⁻¹", "ENDPOINT RESULT": "2.78e-05"}
{"INPUT SMILES": "COCCC(=O)N1CCN2c3cc4c(N[C@H](C)c5cccc(C(F)F)c5F)nc(C)nc4cc3OC[C@H]2C1", "REPORTED METRIC": "k el", "UNIT TEXT": "s⁻¹", "ENDPOINT RESULT": "5e-05"}

QUERY: Could you share which k el value was measured for Cc1nc(N[C@H](C)c2cccc(C(F)F)c2F)c2cc3c(cc2n1)OC[C@H]1CN(C(=O)C2(F)CC2)CCN31 ?
RESULT: 8.33e-05
